Molecular target: GABAA receptor α2β3γ2 (Homo sapiens, UniProt P18507+P47869)
Construct: expressed in transfected cells; host or cells: Xenopus laevis oocytes injected with cRNA
Sequence (P47869 29-451): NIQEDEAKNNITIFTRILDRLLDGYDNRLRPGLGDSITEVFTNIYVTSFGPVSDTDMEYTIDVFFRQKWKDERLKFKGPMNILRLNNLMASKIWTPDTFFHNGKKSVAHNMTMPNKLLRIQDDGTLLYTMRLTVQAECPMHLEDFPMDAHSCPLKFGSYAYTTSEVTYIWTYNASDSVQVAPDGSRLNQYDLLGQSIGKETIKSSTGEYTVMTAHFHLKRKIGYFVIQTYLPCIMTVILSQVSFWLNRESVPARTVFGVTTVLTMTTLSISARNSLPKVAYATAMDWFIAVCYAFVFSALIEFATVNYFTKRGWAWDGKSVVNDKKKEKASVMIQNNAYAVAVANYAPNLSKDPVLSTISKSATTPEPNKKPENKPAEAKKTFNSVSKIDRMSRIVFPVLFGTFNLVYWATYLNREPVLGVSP
Sequence (P28472 26-473 partner): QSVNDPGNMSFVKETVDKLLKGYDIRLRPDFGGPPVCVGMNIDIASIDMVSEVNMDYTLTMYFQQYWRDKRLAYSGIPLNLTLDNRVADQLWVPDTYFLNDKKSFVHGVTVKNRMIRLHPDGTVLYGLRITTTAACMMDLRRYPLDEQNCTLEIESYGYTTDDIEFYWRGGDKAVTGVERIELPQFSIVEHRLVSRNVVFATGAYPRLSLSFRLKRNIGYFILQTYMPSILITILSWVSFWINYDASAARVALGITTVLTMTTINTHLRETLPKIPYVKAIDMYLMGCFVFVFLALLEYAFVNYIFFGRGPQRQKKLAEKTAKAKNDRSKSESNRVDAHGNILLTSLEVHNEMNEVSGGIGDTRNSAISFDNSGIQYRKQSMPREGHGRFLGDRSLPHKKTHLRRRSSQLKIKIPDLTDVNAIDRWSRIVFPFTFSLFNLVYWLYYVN
Sequence (P18507 40-475): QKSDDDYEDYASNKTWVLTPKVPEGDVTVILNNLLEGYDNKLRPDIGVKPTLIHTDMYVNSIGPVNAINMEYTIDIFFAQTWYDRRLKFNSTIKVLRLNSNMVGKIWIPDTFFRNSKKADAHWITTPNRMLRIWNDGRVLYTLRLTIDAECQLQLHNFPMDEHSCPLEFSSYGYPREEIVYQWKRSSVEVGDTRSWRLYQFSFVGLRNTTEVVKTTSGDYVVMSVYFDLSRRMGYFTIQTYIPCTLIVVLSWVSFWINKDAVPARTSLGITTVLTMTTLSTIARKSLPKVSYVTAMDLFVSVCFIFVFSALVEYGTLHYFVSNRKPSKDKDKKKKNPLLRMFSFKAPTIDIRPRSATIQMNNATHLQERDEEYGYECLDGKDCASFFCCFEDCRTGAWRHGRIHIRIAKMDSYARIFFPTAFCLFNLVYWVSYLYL
Experiment: Two-electrode voltage-clamp potentiation of GABA EC10 current in Xenopus oocytes, GABAA2
Assay type: cell-based
Conditions: percentage potentiation of GABA EC10 current divided by that of diazepam
Protocol: GABAA receptors were heterologously expressed in Xenopus oocytes by injecting cRNA corresponding to human α1, α2, α3, α5, β2, P3 and γ2 subunits of the GABAA receptor genes. […] Modulatory effect of test compound is determined and compared across subtypes. […] All measurements were done in a medium containing ND-96 (96 NaCl, 2 KCl, 1.8 CaCl2.2H2O, 1 MgCl2.6H2O, 5 HEPES, in mM, pH 7.5). […] The concentration of GABA corresponded to the EC10 value calculated for each oocyte. […]
Mark true for reported Relative Potentiation for GABAA2 of 0.3 or greater; mark false for anything smaller.

> print(dat)
                                entry.smiles  class.label
 1  CCCN1Cc2nc3c(-c4cc(Cl)ccc4Cl)cccc3c(N)c2C1=O         true
 2  CCN1Cc2nc3c(-c4ccc(OC)c(OC)c4)c(F)ccc3c(N)c2C1=O        false
 3  COc1ccc(CN2Cc3nc4c(-c5cc(C)nn5C)cccc4c(N)c3C2=O)cc1         true
 4  COc1ccc(Cl)cc1-c1cccc2c(N)c3c(nc12)CN(C1CCC1)C3=O         true
 5  COc1ccc(F)cc1-c1c(F)ccc2c(N)c3c(nc12)CN(C1CCC1)C3=O        false
 6  Cc1nc(F)ccc1-c1cccc2c(N)c3c(nc12)CN(C1CCC1)C3=O         true
 7  Nc1c2c(nc3c(-c4ncccc4F)cccc13)CN(C1CCC1)C2=O        false
 8   CCN1Cc2nc3c(-c4cccnc4OC)cccc3c(N)c2C1=O        false
 9  Nc1c2c(nc3c(-c4ccc(F)nc4F)cccc13)CN(C1CCC1)C2=O        false
10  CCCN1Cc2nc3c(-c4ccc(C)nc4)cccc3c(N)c2C1=O        false
11  Nc1c2c(nc3c(-c4cncnc4)c(F)ccc13)CN(C1CCC1)C2=O        false
12  Cc1ccc(-c2c(F)ccc3c(N)c4c(nc23)CN(C2CCC2)C4=O)cn1        false
13  COc1ccc(-c2cccc3c(N)c4c(nc23)CN(C2CCC2)C4=O)c(OC)c1        false
14  CCN1Cc2nc3c(-c4ccccc4C#N)cccc3c(N)c2C1=O        false
15  CCCN1Cc2nc3c(-c4cc(C)cc(C)c4)cccc3c(N)c2C1=O        false
16  CCCN1Cc2nc3c(-c4cc(OC)ccc4F)cccc3c(N)c2C1=O         true
17  CCN1Cc2nc3c(-c4cc(F)ccc4OC)cccc3c(N)c2C1=O        false
18  CCCN1Cc2nc3c(-c4cnccc4OC)cccc3c(N)c2C1=O         true
19  COc1cccc(F)c1-c1cccc2c(N)c3c(nc12)CN([C@H]1C[C@@H](C)C1)C3=O         true
20  COc1ncc(-c2cccc3c(N)c4c(nc23)CN(C2CC2)C4=O)cc1C        false
